System: NCI-H522 lung
Assay Comment: NCI tumour cell line growth inhibition, 48 h
Would you mind telling me the reported TGI of each entry?

Exercise: Given the entry CO/N=C(\C(=O)N(C)n1cnnc1)c1csc(NC(c2ccccc2)(c2ccccc2)c2ccccc2)n1 , report its measured TGI.
Key: > 10 µM

Exercise: Recorded TGI for CNCc1cc(OC)ccc1-c1ccc(OC)c(OC)c1OC , please?
Key: > 100 µM

Exercise: Requested field: TGI. Item: O=CNc1ncn[nH]1
Key: > 100 µM

Exercise: // lookup TGI for CC(NC(=O)C(N)CC(=O)O)NC(=O)C1CCC1 (stereo not given)
Key: > 100 µM

Exercise: Quick one: TGI of C[n+]1c(-c2ccc(/C=N/NC(=O)C(=O)N/N=C/c3ccc(-c4cn5ccsc5[n+]4C)cc3)cc2)cn2ccsc21 ?
Key: > 100 µM

Exercise: Suppose we examine the compound CCCCCCCCCCCCCC(=O)OCC1OC(n2cc(F)c(=O)[nH]c2=O)C(NC(=O)OCc2ccccc2)C(OC(=O)CCCCCCCCCCCCC)C1O (stereo not given) ; what TGI value has been reported?
Key: > 100 µM

Exercise: If you can, please state the reported TGI value of COC(=O)[C@@H]1CN(C(C)=O)C(=O)N1C(=O)OCc1ccccc1 .
Key: > 100 µM

Exercise: Item under review: O=C(Nc1ccccc1)N(C1=NCC(CI)S1)c1ccc(F)cc1F (stereo not given) . Reported TGI?
Key: > 100 µM

Exercise: Looking for the measured TGI of Nc1ccn(C2CCC(CO)O2)c(=S)n1 (stereo not given) , can you help?
Key: > 100 µM

Exercise: Recorded TGI of CC(=O)Nc1ccc2[nH]c(-c3cccc(Cl)c3)cc(=O)c2c1 , please.
Key: > 100 µM

----------
Kindly state TGI for each of the entries shown.
System: NCI/ADR-RES ovarian
Assay Comment: NCI tumour cell line growth inhibition, 48 h

Exercise: Entry COc1ccc(OCc2ccc3nc(-c4ccccc4)c(Cl)nc3c2)cc1 : reported TGI = ?
Key: > 100 µM

Exercise: Consider the compound CC1=C/C(=N\O)C(C(O)(C(F)(F)F)C(F)(F)F)C(C)(C)C1 (stereo unspecified) and give its measured TGI.
Key: > 10 µM

Exercise: For the compound CCN(CC)c1ccc2cc(C(=O)Nc3ccccc3)c(=N)oc2c1 , what TGI is on record?
Key: > 100 µM

Exercise: Field request: TGI | item: COC(=O)[C@@H]1CN(C(C)=O)C(=O)N1C(=O)OCc1ccccc1
Key: > 100 µM

Exercise: Quick one: TGI for COC(=O)C(=O)C(C(=O)C(=O)Nc1nc2ccc(C)cc2s1)c1nc2ccc([N+](=O)[O-])cc2[nH]c1=O (stereo unspecified) ?
Key: > 100 µM

Exercise: Request the reported TGI associated with CCOC(=O)[C@@]12C[C@](/C=C/OC)(O[Si](C)(C)C)[C@@]13c1cc(OC)c(OC)cc1CCN3C(=O)C2O (stereo partly specified)
Key: > 100 µM

----------
Test system: MALME-3M melanoma
Assay Comment: NCI tumour cell line growth inhibition, 48 h
Property Name: TGI

Exercise: Dear colleague, I am looking for the recorded TGI of the following compound: CC(=O)c1cc(C(=O)c2ccc3c(c2)Sc2ccccc2N3)c2c(C)cc(C)cn12
Key: > 100 µM

Exercise: For CC[P+](C)(C)c1ccccc1 , what is its reported TGI?
Key: > 100 µM

Exercise: Tell me the measured TGI of CC1CC[C@@]2(OC1)OC1CC3C4CCC5C[C@@H](OC6OC(CO)C(OC7OC(CO)C(O)C(OC8OC(CO)C(O)C(OC9OC(CO)C(O)C(O)C9O)C8O)C7OC7OC(CO)C(O)C(O)C7O)C(O)C6O)[C@H](O)C[C@]5(C)C4CC[C@]3(C)C1[C@@H]2C (stereo partly drawn) , please.
Key: > 80.5 µM
